Listed here are compounds together with their documented pIC50.
test system: CLB70 cell line (canine chronic B-cell lymphocytic leukemia); assay: MTT assay, antiproliferative activity against CLB70; assay type: cell-based; settings: Canis lupus familiaris, CLB70; 72 h of exposure, MTT, mean ± SD
pIC50: −log10 of the molar value.
MEASUREMENT TYPE: pIC50

>>> print(df.to_string())
                                   compound   val
0  COc1cc([C@@H]2CC(=O)O[C@@H]2C(C)Cl)ccc1O (relative stereo) [12a]  4.12
1  COc1cc([C@H]2CC(=O)O[C@@H](C)[C@@H]2Cl)ccc1O (racemic) [12b]  4.15
2  COc1cc([C@@H]2CC(=O)O[C@H]2C(C)I)ccc1O (relative stereo) [10b]  4.15
3   COc1cc(C=O)ccc1O [compound 1, Vanillin]  4.14
4  COc1cc([C@@H]2CC(=O)O[C@@H]2C(C)I)ccc1O (relative stereo) [10a]  4.16
5  COc1cc([C@@H]2CC(=O)O[C@@H]2C(C)Br)ccc1O (relative stereo) [11a]  4.12

---

Test system: CaCo-2 (human colorectal adenocarcinoma)
Test: MTT assay, antiproliferative activity against CaCo-2
Assay type: cell-based
Details: 72 h, MTT, up to 100 µM
Protocol: The CLB70 cell line (canine chronic B-cell lymphocytic leukemia) was established at the Department of Pharmacology and Toxicology, Wrocław University of Environmental and Life Sciences. The CLBL-1 cell line (canine B-cell lymphoma) was kindly provided by Dr. Barbara C. […] The results were determined from three independent experiments (four wells each) and presented as mean IC50 value ± SD from at least […], each performed in quadruplicate. […]
MEASUREMENT TYPE: antiproliferative activity against CaCo-2 (in words)

In [3]: df
Out[3]:
                                   compound                val
0  COc1cc([C@@H]2CC(=O)O[C@@H]2C(C)Cl)ccc1O (relative stereo) [12a]  moderate activity
1  COc1cc([C@H]2CC(=O)O[C@@H](C)[C@@H]2Cl)ccc1O (racemic) [12b]  moderate activity
2  COc1cc([C@@H]2CC(=O)O[C@@H]2C(C)Br)ccc1O (relative stereo) [11a]  moderate activity

---

Listed here are compounds together with their documented SI CLB70.
tested on: CLB70 cell line (canine chronic B-cell lymphocytic leukemia); experiment: MTT assay, antiproliferative activity against CLB70; type: cell-based; conditions: ratio IC50 NIH/3T3 / IC50 CLB70
MEASUREMENT TYPE: SI CLB70

>>> print(df.to_string())
                                   compound   val
0  COc1cc([C@@H]2CC(=O)O[C@@H]2C(C)Br)ccc1O (relative stereo) [11a]  >1.3
1  COc1cc([C@@H]2CC(=O)O[C@H]2C(C)I)ccc1O (relative stereo) [10b]  >1.4
2                          COc1cc(C=O)ccc1O  >1.4
3  COc1cc([C@@H]2CC(=O)O[C@@H]2C(C)I)ccc1O (relative stereo) [10a]  >1.4
4  COc1cc([C@@H]2CC(=O)O[C@@H]2C(C)Cl)ccc1O (relative stereo) [12a]  >1.3
5  COc1cc([C@H]2CC(=O)O[C@@H](C)[C@@H]2Cl)ccc1O (racemic) [12b]  >1.4

---

Listed here are compounds together with their documented IC50.
tested on: CaCo-2 (human colorectal adenocarcinoma); assay: MTT assay, antiproliferative activity against CaCo-2; format: cell-based; conditions: Homo sapiens, Caco-2; 72 h of exposure, MTT, mean ± SD
MEASUREMENT TYPE: IC50 (µM)

>>> df
                                   compound                                    target  readout_unit  cmp   val
0  COc1cc([C@H]2CC(=O)O[C@@H](C)[C@@H]2Cl)ccc1O (racemic) [12b]  CaCo-2 (human colorectal adenocarcinoma)            µM    =  72.5
1                          COc1cc(C=O)ccc1O  CaCo-2 (human colorectal adenocarcinoma)            µM    >   100
2  COc1cc([C@@H]2CC(=O)O[C@@H]2C(C)Cl)ccc1O (relative stereo) [12a]  CaCo-2 (human colorectal adenocarcinoma)            µM    =  88.1
3  COc1cc([C@@H]2CC(=O)O[C@H]2C(C)I)ccc1O (relative stereo) [10b]  CaCo-2 (human colorectal adenocarcinoma)            µM    >   100
4  COc1cc([C@@H]2CC(=O)O[C@@H]2C(C)Br)ccc1O (relative stereo) [11a]  CaCo-2 (human colorectal adenocarcinoma)            µM    =  76.4
5  COc1cc([C@@H]2CC(=O)O[C@@H]2C(C)I)ccc1O (relative stereo) [10a]  CaCo-2 (human colorectal adenocarcinoma)            µM    >   100
